Dear all, this message contains IC50 results, target or system Sulfotransferase 1E1 (Mus musculus).
Give a bare numeral; the unit µM is implied.

*Q* Answer with the recorded IC50 for the compound listed here: "COc1ccc(CNc2nc(N3CCN(C)CC3)nc3c2ncn3C(C)C)cc1"
*A* 80

*Q* Specify measured IC50 for CC(C)n1cnc2c(NCc3ccc(N)cc3)nc(NCCCCC(=O)C3CSC(=O)N3)nc21 (centres undefined) .
*A* 72

*Q* Using known records, supply IC50 for "Cn1cnc2c(NCc3ccc(Cl)cc3)nc(NCC(N)=O)nc21"
*A* 35
